// provenance: PubChem BioAssay

target: Homeobox protein Hox-A13 (Mus musculus) (UniProt Q62424); assay: inhibitors of HoxA13-DNA binding, primary screen, biochemical, fluorescence polarization, labeled oligonucleotide (AID 1185); details: 15 min, higher = more signal, called active from +8 up or from −8 down
Sequence (Q62424 whole entry, looked up): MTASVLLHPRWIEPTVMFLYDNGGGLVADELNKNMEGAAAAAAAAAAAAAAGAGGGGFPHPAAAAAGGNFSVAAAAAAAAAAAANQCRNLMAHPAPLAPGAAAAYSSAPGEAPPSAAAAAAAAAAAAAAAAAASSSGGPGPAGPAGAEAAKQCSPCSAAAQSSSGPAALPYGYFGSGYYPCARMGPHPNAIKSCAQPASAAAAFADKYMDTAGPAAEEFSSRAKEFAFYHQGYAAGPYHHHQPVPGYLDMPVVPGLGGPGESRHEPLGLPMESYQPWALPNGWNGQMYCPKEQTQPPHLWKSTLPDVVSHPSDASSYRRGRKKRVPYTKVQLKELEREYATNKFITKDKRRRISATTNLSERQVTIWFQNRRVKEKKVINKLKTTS
measured.quantity: z-score
Provide a numeric answer; units are not to be included.

# smiles.text, target.entity, measured.quantity, measured.number
rows = [
    ("CO[C@H]1COC(=O)CCC[C@H](C)[C@@H](OC)COC(=O)CC=C[C@@H]1C", "Homeobox protein Hox-A13 (Mus musculus) (UniProt Q62424)", "z-score", 0.544),
    ("CC(C)[C@@H](OCc1ccccc1)[C@H](C)C=NO[C@@H](C)c1cn([C@H](CO)Cc2ccccc2)nn1", "Homeobox protein Hox-A13 (Mus musculus) (UniProt Q62424)", "z-score", -5.22),
    ("O=C1[C@H]2[C@H]3[C@H](O)[C@H](O)CC(=NO[C@@H]4O[C@H](CO)[C@@H](O)[C@H](O)[C@H]4O)[C@@H]3CC[C@H]2C(=O)N1c1cccc(Oc2ccccc2)c1", "Homeobox protein Hox-A13 (Mus musculus) (UniProt Q62424)", "z-score", -1.14),
    ("Cc1ccc(S(=O)(=O)N[C@@H]2COC(=O)CC=C[C@@H](C)[C@H](NS(=O)(=O)c3ccc(C)cc3)COC(=O)[C@H](C)NC(=O)CC=C[C@H]2C)cc1", "Homeobox protein Hox-A13 (Mus musculus) (UniProt Q62424)", "z-score", -1.11),
    ("CCN1C(=O)[C@H]2[C@H]3[C@H](O)[C@H](O)CC(=NO[C@@H]4O[C@H](CO)[C@@H](O)[C@H](O)[C@H]4O)[C@H]3CC[C@H]2C1=O", "Homeobox protein Hox-A13 (Mus musculus) (UniProt Q62424)", "z-score", -0.898),
]

[ask] Give the measured z-score of O=C1C2=CC[C@H]3C(=O)N(C4CCCCC4)C(=O)[C@H]3[C@H]2[C@H](O)[C@@H]2O[C@H]12 .
[reply] -5.22

[ask] Name the reported z-score value associated with the compound C[C@@H]1CC[C@H]2C(=O)O[C@@H](CN=[N+]=[N-])CN2[C@H]1c1ccc(Br)cc1
[reply] -0.917

====

experiment: small-molecule microarray binders of probe aXIP, primary screen, biochemical, NeuroSMM set, 635/667 nm fluorescence (AID 1119); details: higher = more signal, called active from +8 up or from −8 down;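 further: probe is the protein aXip251-270 applied at 1 µg/mL to compound-printed slides; binding of probe to printed compounds measured as 667 nm fluorescence plus signal to noise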
measured.quantity: composite Z-score
Write the number on its own, no unit after it.

[ask] Can you look up the measured composite Z-score of COc1ccc(COC(=O)NN=C2C[C@@H](O)[C@@H](O)[C@@H]3[C@@H]4C(=O)N(C(C)(C)C)C(=O)[C@@H]4CC[C@@H]23)cc1 for me?
[reply] 0.526

[ask] Give the measured composite Z-score of C[C@@H]1CC[C@@H](C(=O)O)N[C@H]1c1cccc(N2CCOCC2)c1 .
[reply] 0.227

[ask] I would be grateful if you could share the reported composite Z-score for CC(=O)OC[C@H]1O[C@H](C#CCCc2ccccc2)C=C[C@@H]1OC(C)=O .
[reply] -0.399

[ask] Entry CC(C)[C@H](NC(=O)OC(C)(C)C)[C@@H](O)CC(=O)C(C)(C)C : reported composite Z-score = ?
[reply] -0.382

====

assay: anti-His antibody binders, primary screen, artefact control for SMM control protein annotation, biochemical, small-molecule microarray, 635 nm fluorescence (AID 1128); details: anti-His Alexa647 antibody binding, higher = more signal;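 further: score merges feature fluorescence with signal-to-noise for each printed compound spot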
measured.quantity: composite z-score
The response must contain the number and no unit.

Here are 2 molecules together with their reported answers.
# smiles.text, composite z-score
data = [
    ("CC(C)CON=C1C[C@@H](O)[C@@H](O)[C@@H]2[C@@H]3C(=O)N(C(C)(C)C)C(=O)[C@@H]3CC[C@@H]12", -0.587),
    ("CCOC(=O)CCN1C(=O)[C@H]2[C@H]3[C@H](O)[C@H](O)CC(=O)[C@@H]3CC[C@H]2C1=O", 0.591),
]

[ask] Look up composite z-score: CO[C@@H]1[C@H](O)CO[C@H]1C=Cc1ccccc1
[reply] 0.286

====

test system: Noggin (protein binding on small-molecule microarray); test: Noggin binders on small-molecule microarray, primary screen, biochemical, 635/667 nm fluorescence (AID 1095); conditions: 635 nm fluorescence, higher = more signal;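 further: score merges 667 nm feature fluorescence with signal to noise over triplicate slides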
composite z-score for assorted compounds
Lab note: record the figure alone, no unit after it.

# compound, target.entity, measured.number
records = [
    ("CC(=O)OC[C@H]1O[C@H](CC=NO[C@H](C)c2cn([C@@H]3COC[C@H]3O)nn2)C=C[C@@H]1OC(C)=O", "Noggin (protein binding on small-molecule microarray)", 0.411),
    ("O=C(NCCC[N+]1=CC=NC1c1ccccc1)N1CCCc2nc(-c3ccc(Br)cc3)ccc21 (configuration not stated)", "Noggin (protein binding on small-molecule microarray)", 0.232),
    ("CC(=O)OC[C@H]1O[C@@H](ON=C(C)CCN2CCCCc3nc(C)c(C)cc32)[C@H](OC(C)=O)[C@@H](OC(C)=O)[C@@H]1OC(C)=O", "Noggin (protein binding on small-molecule microarray)", 0.708),
    ("O=C1C[C@H](c2ccccc2)[C@H](c2ccc(Br)cc2)O1", "Noggin (protein binding on small-molecule microarray)", 0.401),
    ("C[C@H]1CC[C@@H](C(=O)O)N[C@@H]1c1cccc(N2CCCC2=O)c1", "Noggin (protein binding on small-molecule microarray)", 0.49),
    ("COc1ccc(-c2cnnc(CCCn3ccnc3-c3ccccc3)n2)cc1", "Noggin (protein binding on small-molecule microarray)", 0.592),
]

[ask] Please give the measured composite z-score for this compound: C[C@H]1C=CCC(=O)OC[C@H](C)C(=O)N2CCC[C@H]2C(=O)OC1
[reply] 2.09

====

target: Follistatin (Homo sapiens) (UniProt P19883); assay: follistatin binders on small-molecule microarrays, primary screen, biochemical, small-molecule microarray, 635/667 nm fluorescence (AID 1132); settings: FST binding, 635 nm fluorescence, higher = more signal
Sequence (P19883 whole entry, looked up): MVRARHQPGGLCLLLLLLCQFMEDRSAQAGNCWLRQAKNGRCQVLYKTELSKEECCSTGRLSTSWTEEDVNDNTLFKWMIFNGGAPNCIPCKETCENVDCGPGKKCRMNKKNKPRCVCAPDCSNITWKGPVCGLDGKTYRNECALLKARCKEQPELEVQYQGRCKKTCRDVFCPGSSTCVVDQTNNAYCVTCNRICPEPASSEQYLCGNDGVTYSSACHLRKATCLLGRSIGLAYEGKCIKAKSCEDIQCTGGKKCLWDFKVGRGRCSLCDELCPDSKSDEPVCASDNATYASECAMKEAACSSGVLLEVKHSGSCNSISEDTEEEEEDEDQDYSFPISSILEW
measured.quantity: composite z-score
Give the figure only, with no unit attached.

# compound, composite z-score
records = [
    ("COCOc1ccc(Br)cc1C(=O)C=Cc1ccc2c(c1)OCO2", 0.516),
    ("CC(C)(C)N1C(=O)[C@H]2[C@@H]3C(=CC[C@H]2C1=O)C(=O)[C@H]1O[C@H]1[C@H]3O", 0.1),
    ("COc1ccc(-c2cnnc(CCCn3ccnc3-c3ccccc3)n2)cc1", 0.836),
    ("CCC1=NOC(CCC2CC(OC(=O)NCc3cccc4c3OCO4)CC3(CCCC(COC(=O)NCCc4ccc(Cl)cc4)O3)O2)C1 (configuration not stated)", 0.0801),
    ("COC(=O)[C@H](C)NC(=O)CCC1CC(OC(=O)NCCc2ccc(F)cc2)CC2(CCCC(COC(=O)NCC3CCCCC3)O2)O1 (some centres not stated)", 0.639),
]

[ask] Consider the compound CC(=O)OC[C@H]1O[C@H](CC=NOC[C@@H](O)[C@H]2O[C@@H]3OC(C)(C)O[C@@H]3[C@H]2O)C=C[C@@H]1OC(C)=O and give its measured composite z-score.
[reply] 0.209

[ask] Item CCOC(=O)[C@H](CC(C)C)NC(=O)CCC1CC(OC(=O)NCCc2ccc(F)cc2)CC2(CCCC(COC(=O)NCc3cccc4ccccc34)O2)O1 (some centres not stated) has what recorded composite z-score?
[reply] 1.27

====

biological target: Carbonic anhydrase 2 (Homo sapiens) (UniProt P00918); assay: CAII small-molecule binders, profiling panel, biochemical, small-molecule microarray, Alexa647-labelled CAII (AID 1122); settings: CAII-A647 binding fluorescence, higher = more signal
measured.quantity: composite z-score
Please reply with the number alone, leaving off any unit.

Answered examples (5):
# compound, composite z-score
rows = [
    ("Cc1ccc2[nH]c3nc(CCCn4ccnc4-c4ccccc4)nnc3c2c1", 0.465),
    ("O=C1[C@H]2[C@H]3[C@H](O)[C@H](O)CC(=NO[C@@H]4O[C@H](CO)[C@@H](O)[C@H](O)[C@H]4O)[C@@H]3CC[C@H]2C(=O)N1C[C@@H]1CCCO1", 0.212),
    ("C[C@@H](c1ccccc1)N1C(=O)[C@H]2[C@H]3[C@H](O)[C@H](O)CC(=NOCc4ccccc4)[C@@H]3CC[C@H]2C1=O", -0.247),
    ("CC(CCN1CCCc2nc(C)c(C)cc21)=NO[C@H](C)c1cn([C@@H]2COC[C@H]2O)nn1", 0.25),
    ("CC(=O)OC[C@H]1O[C@H](CC=NO[C@@H](C)c2cn([C@H](CO)Cc3ccccc3)nn2)C=C[C@@H]1OC(C)=O", 0.342),
]

Note: attention shifts to another entry.
[ask] Can you look up composite z-score on Carbonic anhydrase 2 (Homo sapiens) (UniProt P00918) for COc1ccc(COC(=O)NN=C2C[C@@H](O)[C@@H](O)[C@@H]3[C@@H]4C(=O)N(c5cccc(Oc6ccccc6)c5)C(=O)[C@@H]4CC[C@H]23)cc1 ?
[reply] -0.0831
